Target: KRas WT (Homo sapiens)
Construct: Biotinylated KRas (corresponding to amino acids 1-169, produced at Accelegan Inc.); biotin (biotinylated); purchased Accelegan Inc
Sequence (P01116 1-169 isoform P01116-2): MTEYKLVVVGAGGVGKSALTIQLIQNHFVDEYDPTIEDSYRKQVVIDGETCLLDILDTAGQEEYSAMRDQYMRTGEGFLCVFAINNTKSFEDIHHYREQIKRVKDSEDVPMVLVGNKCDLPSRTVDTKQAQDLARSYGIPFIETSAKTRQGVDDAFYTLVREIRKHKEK
Experiment: KRas binding assay, TR-FRET displacement of Cy5 labelled tracer
Details: 60-minute incubation at room temperature, 1% DMSO, pH 7.5
value_type: IC50 (nM)

CCc1c(F)ccc2cc(O)cc(-c3ncc4c(N5CCC(C)(C(=O)n6ccc(C)n6)C5)nc(OC[C@@]56CCCN5C[C@H](F)C6)nc4c3F)c12 (stereo partly drawn) [Example 94] = 306

(P) Cc1ccn(C(=O)C2CCCN(c3nc(OC[C@@]45CCCN4C[C@H](F)C5)nc4c(F)c(-c5ccc(F)c6sc(N)c(C#N)c56)c(C(F)(F)F)cc34)CC2)n1 (stereo partly drawn) [Example 272]
(Q) Cc1ccn(C(=O)C23CC(CNc4nc(OC[C@@]56CCCN5C[C@H](F)C6)nc5c(F)c(-c6ccc(F)c7sc(N)c(C#N)c67)c(Cl)cc45)(C2)C3)n1 [Example 184]
**Query** Could you please tell me which of these two has the higher IC50: P or Q ? State your choice using its label.
**Result** Q

---

Biological target: KRas-mediated phosphorylation of ERK in MKN1 cells (Homo sapiens, UniProt P01116)
Construct: pERK HTRF read-out
Sequence (P01116 1-188 isoform P01116-2): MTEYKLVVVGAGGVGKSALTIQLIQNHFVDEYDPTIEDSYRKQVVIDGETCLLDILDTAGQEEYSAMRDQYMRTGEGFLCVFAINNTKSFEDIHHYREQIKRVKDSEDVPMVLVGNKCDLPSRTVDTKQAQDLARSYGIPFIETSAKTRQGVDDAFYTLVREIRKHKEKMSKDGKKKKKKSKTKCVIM
Experiment: Inhibition of KRas-mediated phosphorylation of ERK (HTRF), MKN1 cells
Format: cell-based
Conditions: MKN1 cells (KRas WT); HTRF pERK; 3 h incubation
value_type: IC50 (nM)

CCc1c(F)ccc2cc(O)cc(-c3ncc4c(N5CCN(C(=O)n6ccc(C)n6)C6(CC6)C5)nc(OC[C@@]56CCCN5C[C@H](F)C6)nc4c3F)c12 (single isomer, unassigned) [Example 78] = 90
N#Cc1c(N)sc2c(F)ccc(-c3c(Cl)cc4c(N5CCC(C(=O)Oc6ccccc6)CC5)nc(OC[C@@]56CCCN5C[C@H](F)C6)nc4c3F)c12 [Example 287] = 360
CCc1c(F)ccc2cc(O)cc(-c3ncc4c(N5CC(C(=O)n6ccc(C)n6)C(C)(C)C5)nc(OC[C@@]56CCCN5C[C@H](F)C6)nc4c3F)c12 (stereo partly shown) [Example 101] = 5550
CCc1c(F)ccc2cc(O)cc(-c3ncc4c(N5CCC(C(=O)N(C)C(=O)COC)CC5)nc(OC[C@@]56CCCN5C[C@H](F)C6)nc4c3F)c12 [Example 209] = 1110
CCc1c(F)ccc2cc(O)cc(-c3ncc4c(N(C)CC(C)CC(=O)N(C)C(C)=O)nc(OC[C@@]56CCCN5C[C@H](F)C6)nc4c3F)c12 (stereo partly shown) [Example 283] = 323
CCc1c(F)ccc2cc(O)cc(-c3ncc4c(N5CCN(C(=O)n6ccc(C)n6)C(C(F)(F)F)C5)nc(OC[C@@]56CCCN5C[C@H](F)C6)nc4c3F)c12 (stereo partly shown) [Example 127] = 514

(P) Cc1ccn(C(=O)C2CC3CN(c4nc(OC[C@@]56CCCN5C[C@H](F)C6)nc5c(F)c(-c6ccc(F)c7sc(N)c(C#N)c67)c(Cl)cc45)CC32)n1 (stereo partly shown) [Example 178]
(Q) Cc1ccn(C(=O)CC2CN(c3nc(OC[C@@]45CCCN4C[C@H](F)C5)nc4c(F)c(-c5ccc(F)c6sc(N)c(C#N)c56)c(Cl)cc34)C2)n1 [Example 138]
(R) CON(C(C)=O)C(=O)CCCN(C)c1nc(OC[C@@]23CCCN2C[C@H](F)C3)nc2c(F)c(-c3ccc(F)c4sc(N)c(C#N)c34)c(Cl)cc12 [Example 234]
**Query** Order each entry by recorded IC50, climbing from the minimum. Please reply with the labels ordered as requested. Many thanks.
**Result** Q, R, P
